Quick reference: pIC50 of the listed items.
Target: Proteasome subunit beta type-9 (Homo sapiens)
Sequence (P28065 whole entry): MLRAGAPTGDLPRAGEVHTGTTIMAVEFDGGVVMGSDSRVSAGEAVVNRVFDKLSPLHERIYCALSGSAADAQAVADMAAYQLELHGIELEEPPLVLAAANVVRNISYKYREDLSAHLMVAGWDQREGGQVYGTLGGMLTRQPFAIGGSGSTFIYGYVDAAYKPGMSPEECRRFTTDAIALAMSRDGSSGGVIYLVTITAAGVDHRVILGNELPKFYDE
Assay: Inhibition of human 20S proteasome LMP2 activity in human RPMI-8226 cells overexpressing ABCB1 using Ac-PAL-AMC as fluorogenic substrate incubated for 72 hrs by fluorescence assay
Format: cell-based
Note: pIC50 values are expressed as the negative base-10 logarithm of concentration in M.

> print(dat)
                            molecule.smiles  numeric.result
1  CC(C)C[C@H](NC(=O)[C@@H]1Cc2ccc(cc2)OCCCCCCCC(=O)N2CCC[C@H]2C(=O)N1)C(=O)[C@@]1(C)CO1            6.79
2  CC(C)C[C@H](NC(=O)[C@@H]1COCCCCCC(=O)N2CCC[C@H]2C(=O)N1)C(=O)[C@@]1(C)CO1            6.83

Next molecule, please.
Returns the measured pIC50 for the input molecule. Input: `C[C@]1(C(=O)[C@H](Cc2ccccc2)NC(=O)[C@@H]2Cc3ccc(cc3)OCCCCCCCC(=O)N3CCC[C@H]3C(=O)N2)CO1` 6.98
